The following are reported IC50 results, target or system Muscarinic acetylcholine receptor.
Give bare numbers, in nM.

# example entries with known answers
> print(dat)
                                   compound                     assayed.target  recorded.measurement
1  C/C(C#Cc1ccccc1)=C/CO/N=C1/CN2CCC1C2 (configuration not stated)  Muscarinic acetylcholine receptor                   181
2  C/C(C#Cc1ccccc1)=C\CO/N=C1\CN2CCC1C2 (configuration not stated)  Muscarinic acetylcholine receptor                  1587
3  COc1ccc(C#C/C(C)=C\CO/N=C2/CN3CCC2C3)cc1 (configuration not stated)  Muscarinic acetylcholine receptor                  1992
4  C/C(C#Cc1ccc(C)cc1)=C/CO/N=C1/CN2CCC1C2 (configuration not stated)  Muscarinic acetylcholine receptor                   383
5  C/C(C#Cc1cccs1)=C\CO/N=C1/CN2CCC1C2 (configuration not stated)  Muscarinic acetylcholine receptor                  5593
6  C/C(C#Cc1cccs1)=C/CO/N=C1\CN2CCC1C2 (configuration not stated)  Muscarinic acetylcholine receptor                    21
7  C/C(C#Cc1ccc(Cl)cc1)=C\CO/N=C1\CN2CCC1C2 (configuration not stated)  Muscarinic acetylcholine receptor                   439
8  C/C(C#Cc1ccc(C)cc1)=C/CO/N=C1\CN2CCC1C2 (configuration not stated)  Muscarinic acetylcholine receptor                    64

I would be grateful if you could provide IC50 for each of the following entries.
1. C/C(C#Cc1ccccc1)=C/CO/N=C1\CN2CCC1C2 (configuration not stated)
2. C/C(C#Cc1cccs1)=C/CO/N=C1/CN2CCC1C2 (configuration not stated)
3. COc1ccc(C#C/C(C)=C\CO/N=C2/CN3CCC2C3)cc1OC (configuration not stated)
4. C#C/C(C)=C\CO/N=C1/CN2CCC1C2 (configuration not stated)

1: 44; 2: 608; 3: 8547; 4: 4234

====

# assayed_target: Muscarinic acetylcholine receptor (Rattus norvegicus) (UniProt P08482+P08483+P08485+P08911+P10980)
# Format: tissue-based
# experimental_context: Neocortex; 100 nM
endpoint: inhibition (%)
Give bare numbers, in %.

> print(dat)
                                   molecule  unit.spec  recorded.measurement
1  C/C(C#Cc1ccc(C)cc1)=C\CO/N=C1/CN2CCC1C2 (configuration not stated)          %                    29

I would be grateful if you could provide inhibition for each of the following entries.
1. COc1ccc(C#C/C(C)=C/CO/N=C2/CN3CCC2C3)cc1 (configuration not stated)
2. C/C(C#Cc1ccc(Cl)cc1)=C\CO/N=C1/CN2CCC1C2 (configuration not stated)
3. C/C(C#Cc1ccc(Cl)c(Cl)c1)=C/CO/N=C1/CN2CCC1C2 (configuration not stated)
4. C/C(C#Cc1ccc(Cl)c(Cl)c1)=C\CO/N=C1/CN2CCC1C2 (configuration not stated)
5. C/C(C#Cc1ccc(Cl)c(Cl)c1)=C/CO/N=C1\CN2CCC1C2 (configuration not stated)

1: 33; 2: 57; 3: 14; 4: 49; 5: 46

Using the record for C/C(C#Cc1ccccc1)=C\CO/N=C1/CN2CCC1C2 (configuration not stated) , report its inhibition. 31

====

Would you kindly list ED50 for each of these molecules?
# assayed_target: Muscarinic acetylcholine receptor M2 (Homo sapiens) (UniProt P08172)
# Sequence (P08172 whole entry): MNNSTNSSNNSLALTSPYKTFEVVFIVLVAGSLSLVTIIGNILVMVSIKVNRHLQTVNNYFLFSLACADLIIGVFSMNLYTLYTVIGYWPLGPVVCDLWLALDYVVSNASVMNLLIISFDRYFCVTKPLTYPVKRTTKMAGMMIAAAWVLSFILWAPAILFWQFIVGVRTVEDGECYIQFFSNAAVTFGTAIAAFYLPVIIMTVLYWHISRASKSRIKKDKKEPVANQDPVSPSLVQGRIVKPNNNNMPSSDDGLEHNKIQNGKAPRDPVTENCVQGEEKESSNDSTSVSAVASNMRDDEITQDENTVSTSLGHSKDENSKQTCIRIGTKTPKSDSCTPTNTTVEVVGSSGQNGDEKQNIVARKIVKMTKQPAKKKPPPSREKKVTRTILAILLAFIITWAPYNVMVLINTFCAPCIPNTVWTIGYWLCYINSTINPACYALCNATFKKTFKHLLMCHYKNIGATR
# experimental_context: NIH3T3
# Description: Agonistic efficacy in human m2 muscarinic receptor expressed with the marker gene beta-galactosidase in NIH 3T3 cells.
Give bare numbers, in nM.

# example entries with known answers
> print(dat)
                                   molecule                            assayed.target  endpoint  unit.spec  recorded.measurement
1  COc1ccc(C#C/C(C)=C/CO/N=C2\CN3CCC2C3)cc1OC (configuration not stated)  Muscarinic acetylcholine receptor M2 (Homo sapiens) (UniProt P08172)      ED50         nM                   1.8
2  C/C(C#Cc1ccc(Cl)cc1)=C/CO/N=C1/CN2CCC1C2 (configuration not stated)  Muscarinic acetylcholine receptor M2 (Homo sapiens) (UniProt P08172)      ED50         nM                   2.8
3  C#C/C(C)=C\CO/N=C1/CN2CCC1C2 (configuration not stated)  Muscarinic acetylcholine receptor M2 (Homo sapiens) (UniProt P08172)      ED50         nM                    45

I would be grateful if you could provide ED50 for each of the following entries.
1. C/C(C#Cc1ccc(C)cc1)=C/CO/N=C1/CN2CCC1C2 (configuration not stated)
2. C/C(C#Cc1ccccc1)=C/CO/N=C1/CN2CCC1C2 (configuration not stated)
3. COc1ccc(C#C/C(C)=C\CO/N=C2/CN3CCC2C3)cc1OC (configuration not stated)
4. COc1ccc(C#C/C(C)=C\CO/N=C2/CN3CCC2C3)cc1 (configuration not stated)
5. C/C(C#Cc1cccs1)=C/CO/N=C1\CN2CCC1C2 (configuration not stated)

1. 4.4
2. 4.2
3. 0.9
4. 10.7
5. 2.3

====

# assayed_target: Muscarinic acetylcholine receptor (Rattus norvegicus) (UniProt P08482+P08483+P08485+P08911+P10980)
# Format: tissue-based
# experimental_context: Neocortex; 1 uM
Lab note: compare inhibition against 30%. Equal or greater, write satisfied. Smaller, write not satisfied.

> print(dat)
                                   compound  discrete.label
1  C/C(C#Cc1ccc(C)cc1)=C\CO/N=C1/CN2CCC1C2 (configuration not stated)       satisfied
2  C/C(C#Cc1ccc(Cl)c(Cl)c1)=C/CO/N=C1\CN2CCC1C2 (configuration not stated)       satisfied
3  C/C(C#Cc1ccc(Cl)c(Cl)c1)=C/CO/N=C1/CN2CCC1C2 (configuration not stated)       satisfied
4  COc1ccc(C#C/C(C)=C/CO/N=C2/CN3CCC2C3)cc1 (configuration not stated)   not satisfied
5  C/C(C#Cc1ccc(Cl)c(Cl)c1)=C\CO/N=C1/CN2CCC1C2 (configuration not stated)       satisfied
6  C/C(C#Cc1ccc(Cl)cc1)=C\CO/N=C1/CN2CCC1C2 (configuration not stated)       satisfied

Turning now to a further compound:
Decide: is the reported value of inhibition for C/C(C#Cc1ccccc1)=C\CO/N=C1/CN2CCC1C2 (configuration not stated) equal to or greater than 30%? not satisfied

====

# assayed_target: Muscarinic acetylcholine receptor M2 (Homo sapiens) (UniProt P08172)
# experimental_context: NIH3T3
endpoint: ED50 (nM)
Answers are plain numbers, in nM.

# example entries with known answers
> print(dat)
                                   molecule                            assayed.target  endpoint  unit.spec  recorded.measurement
1  C/C(C#Cc1cccs1)=C/CO/N=C1/CN2CCC1C2 (centres undefined)  Muscarinic acetylcholine receptor M2 (Homo sapiens) (UniProt P08172)      ED50         nM                   2.5
2  C/C(C#Cc1ccc(C)cc1)=C/CO/N=C1\CN2CCC1C2 (centres undefined)  Muscarinic acetylcholine receptor M2 (Homo sapiens) (UniProt P08172)      ED50         nM                  10.7
3  C/C(C#Cc1cccs1)=C\CO/N=C1\CN2CCC1C2 (centres undefined)  Muscarinic acetylcholine receptor M2 (Homo sapiens) (UniProt P08172)      ED50         nM                    24

Using the record for `C[N+](C)(C)CCOC(N)=O` , report its ED50. 22.8

====

The following are reported IC50 results, target or system Muscarinic acetylcholine receptor.
Answers are plain numbers, in nM.

# example entries with known answers
> print(dat)
                                   molecule  endpoint  unit.spec  recorded.measurement
1  C/C(C#Cc1ccc(Cl)c(Cl)c1)=C\CO/N=C1\CN2CCC1C2 (stereo not drawn)      IC50         nM                   171
2  COc1ccc(C#C/C(C)=C/CO/N=C2\CN3CCC2C3)cc1 (stereo not drawn)      IC50         nM                  1413
3  C#C/C(C)=C/CO/N=C1/CN2CCC1C2 (stereo not drawn)      IC50         nM                 19308
4  COc1ccc(C#C/C(C)=C\CO/N=C2\CN3CCC2C3)cc1OC (stereo not drawn)      IC50         nM                  1245
5  C/C(C#Cc1ccc(C)cc1)=C\CO/N=C1\CN2CCC1C2 (stereo not drawn)      IC50         nM                   681

I would be grateful if you could provide IC50 for each of the following entries.
1. C/C(C#Cc1ccc(Cl)cc1)=C/CO/N=C1/CN2CCC1C2 (stereo not drawn)
2. COc1ccc(C#C/C(C)=C/CO/N=C2\CN3CCC2C3)cc1OC (stereo not drawn)
3. C/C(C#Cc1cccs1)=C\CO/N=C1\CN2CCC1C2 (stereo not drawn)

1. 81
2. 2380
3. 968
